experimental_system: hnRNP A1 (UniProt P09651 1-251+304-372, internal_change)
Sequence (P09651 other isoform, or with tags, fused parts or gaps): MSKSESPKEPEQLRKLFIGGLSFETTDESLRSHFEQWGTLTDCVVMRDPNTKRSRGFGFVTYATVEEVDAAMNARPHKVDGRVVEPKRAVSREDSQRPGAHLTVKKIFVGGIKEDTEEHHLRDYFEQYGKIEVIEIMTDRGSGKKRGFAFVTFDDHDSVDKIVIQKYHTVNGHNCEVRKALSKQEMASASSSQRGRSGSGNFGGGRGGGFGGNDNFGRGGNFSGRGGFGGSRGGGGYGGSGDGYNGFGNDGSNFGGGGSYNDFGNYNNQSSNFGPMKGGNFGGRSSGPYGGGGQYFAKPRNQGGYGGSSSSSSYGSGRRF
experiment_notes: MST; 150 mM KCl; MST: 100 nM RED-labelled hnRNP A1, oligonucleotide titrated, 10 min incubation, working buffer with 150 mM KCl (40 mM HEPES-KOH pH 7.0 stated for the other assays); Hill model; temperature not stated
run_parameters: tags: RED dye label (MST); parallel G4 loop on short duplex stem GCUGC/GCAGC, 5' single-stranded UCAGUU
endpoint: pKd
# pKd is unitless: minus log10 of the molar concentration; print number only

Entry under test: UCAGUUGCUGCGGGUGGGUGGGUGGGGCAGC (structured_RNA) [chap-RNA] . Its pKd was 5.22

These measurements were taken from paper PMC12562432.
